Biological target: HIV protease (Human immunodeficiency virus type 1 group M subtype B)
Construct: A third viral enzyme known as protease then cleaves the polyproteins
Test: Enzymatic Assay for Determining the Inhibition Constant (Ki) of Synthetic Compounds Targeting the HIV Protease (fluorometric FRET assay)
Format: biochemical
Conditions: Table 1, compounds of formula I; read-out: Ki (anti-protease activity)
Where a name gives a salt, the structure may show the parent alone.
reported_property: Ki

| compound | result |
| --- | --- |
| Cc1ccc(S(=O)(=O)N(CC(C)C)[C@H](CO)CCCCNC(=O)CN(CCc2ccccc2)c2ccccc2)cc1 | 0.052 µM |

Lookup: Request - read-out Ki | tested on HIV protease (Human immunodeficiency virus type 1 group M subtype B) | compound CC(C)CN([C@H](CO)CCCCNC(=O)[C@H](Cc1c[nH]c2ccccc12)NC(=O)N1CCOCC1)S(=O)(=O)c1ccc(N)cc1
Found: 0.0011 µM

Lookup: And for Cc1ccc(S(=O)(=O)N[C@@H](Cc2c[nH]c3ccccc23)C(=O)NCCCC[C@@H](C=O)N(CC(C)C)S(=O)(=O)c2ccc(C)cc2)cc1 ?
Found: > 0.3 µM

Lookup: And for Cc1ccc(S(=O)(=O)N(CC(C)C)[C@@H](CCCCNC(=O)CNc2ccccc2)C(=O)O)cc1 ?
Found: 0.0077 µM

Lookup: And for Cc1ccc(S(=O)(=O)N(CC(C)C)[C@@H](CCCCNC(=O)CN(Cc2ccccc2)c2ccccc2)C(=O)O)cc1 ?
Found: 0.000937 µM

Lookup: And for Cc1ccc(S(=O)(=O)N(CC(C)C)[C@@H](CCCCNC(=O)CN(C)c2ccccc2)C(=O)O)cc1 ?
Found: 0.012 µM

Lookup: And for Cc1ccc(S(=O)(=O)N(CC(C)C)[C@@H](CCCCNC(=O)CNCCN2CCCCC2)C(=O)O)cc1 [Example 110, Trifluoroacetic Acid Salt] ?
Found: > 0.3 µM

Lookup: And for COc1ccc(S(=O)(=O)N(CC2CCCC2)[C@H](CO)CCCCNC(=O)[C@@H](N)Cc2c[nH]c3ccccc23)cc1 [Example 152, Trifluoroacetic Acid Salt] ?
Found: 0.012 µM

Lookup: And for Cc1ccc(S(=O)(=O)N(CC(C)C)[C@@H](CCCCNC(=O)CNc2ccccn2)C(=O)O)cc1 ?
Found: > 0.3 µM

Lookup: And for Cc1ccc(S(=O)(=O)N(CC(C)C)[C@H](CO)CCCCNC(=O)[C@H](Cc2c[nH]c3ccccc23)NS(=O)(=O)c2ccccc2)cc1 ?
Found: 0.00095 µM

Lookup: And for Cc1ccc(S(=O)(=O)N(CC(C)C)[C@H](CO)CCCCNC(=O)[C@H](Cc2ccc(CNC(=O)OCC3c4ccccc4-c4ccccc43)cc2)NC(=O)OC(C)(C)C)cc1 ?
Found: > 0.3 µM

Lookup: And for Cc1ccc(S(=O)(=O)N(CC(C)C)[C@@H](CCCCNC(=O)CNc2ccncc2)C(=O)O)cc1 ?
Found: > 0.3 µM

---

Biological target: HIV protease (Human immunodeficiency virus type 1 group M subtype B)
Construct: A third viral enzyme known as protease then cleaves the polyproteins
Assay: Enzymatic Assay for Determining the Inhibition Constant (Ki) of Synthetic Compounds Targeting the HIV Protease (fluorometric FRET assay)
Assay type: biochemical
reported_property: Ki (nM)
Give the quantity in nM, number only.

Reference set, count: 2
| smiles | Ki / nM |
| --- | --- |
| COc1ccc(CN(CC(=O)NCCCC[C@@H](CO)N(CC(C)C)S(=O)(=O)c2ccc(C)cc2)c2ccccc2)cc1 | 6.3 |
| Cc1ccc(S(=O)(=O)N(CC(C)C)[C@H](CO)CCCCNC(=O)[C@H](Cc2c[nH]c3ccccc23)NC(=O)c2ccccc2)cc1 | 3.8 |

Could you now consider this next compound?
Lookup: Field request: Ki | item: Cc1ccc(S(=O)(=O)N[C@@H](Cc2cc3ccccc3s2)C(=O)NCCCC[C@@H](C(=O)O)N(CC(C)C)S(=O)(=O)c2ccc(C)cc2)cc1
Found: 256

---

Attribute: Ki
Biological target: HIV protease (Human immunodeficiency virus type 1 group M subtype B, UniProt P04585)
Construct: A third viral enzyme known as protease then cleaves the polyproteins
Experiment: Enzymatic Assay for Determining the Inhibition Constant (Ki) of Synthetic Compounds Targeting the HIV Protease (fluorometric FRET assay)
Format: biochemical
Give the quantity in nM, number only.

| smiles | tgt | Ki, nM |
| --- | --- | --- |
| COc1ccc(S(=O)(=O)N[C@@H](Cc2ccccc2)C(=O)NCCCC[C@@H](CO)N(CC(C)C)S(=O)(=O)c2ccc(C)cc2)cc1 | HIV protease (Human immunodeficiency virus type 1 group M subtype B, UniProt P04585) | 19 |
| COc1ccc(CN(CC(=O)NCCCC[C@@H](C(=O)O)N(CC(C)C)S(=O)(=O)c2ccc(C)cc2)c2ccccc2)cc1 | HIV protease (Human immunodeficiency virus type 1 group M subtype B, UniProt P04585) | 1.4 |

Lookup: Field request: Ki | item: Cc1ccc(S(=O)(=O)N[C@@H](CC2CCCCC2)C(=O)NCCCC[C@@H](C(=O)O)N(CC(C)C)S(=O)(=O)c2ccc(C)cc2)cc1
Found: 3.2

Lookup: And for Cc1ccc(S(=O)(=O)N(CC(C)C)[C@@H](CCCCNC(=O)[C@H](Cc2ccccc2)N(C)C(=O)OC(C)(C)C)C(=O)O)cc1 ?
Found: 3.8

Lookup: And for Cc1ccc(S(=O)(=O)N(CC(C)C)[C@@H](CCCCNC(=S)[C@H](Cc2ccccc2)NC(=S)c2ccccc2)C(=O)O)cc1 ?
Found: 212

Lookup: And for Cc1ccc(S(=O)(=O)N(CC(C)C)[C@@H](CCCCNC(=O)[C@@H](N)Cc2ccccc2)C(=O)O)cc1 ?
Found: 1.5

---

Target: HIV protease (Human immunodeficiency virus type 1 group M subtype B, UniProt P04585)
Construct: A third viral enzyme known as protease then cleaves the polyproteins
Assay: Enzymatic Assay for Determining the Inhibition Constant (Ki) of Synthetic Compounds Targeting the HIV Protease (fluorometric FRET assay)
Assay type: biochemical
Attribute: pKi
Units for pKi: none; it is -log10 of a concentration expressed in mol/L.

Reference set, count: 3
| smiles | pKi |
| --- | --- |
| Cc1ccc(S(=O)(=O)N(CC(C)C)[C@H](CO)CCCCNC(=O)[C@H](Cc2c[nH]c3ccccc23)NS(=O)(=O)c2cccs2)cc1 | 9.00 |
| Cc1ccc(S(=O)(=O)N(CC(C)C)[C@@H](CCCCNC(=O)[C@H](Cc2ccccc2)NC(=O)N2CCCC2)C(=O)O)cc1 | 8.77 |
| CC(C)CN([C@H](CO)CCCCNC(=O)[C@H](Cc1c[nH]c2ccccc12)NS(=O)(=O)c1cccs1)S(=O)(=O)c1ccc(N)cc1 | 9.00 |

Could you now consider this next molecule?
Lookup: Field request: pKi | item: Cc1ccc(S(=O)(=O)N[C@@H](Cc2ccccc2)C(=O)NCCCC[C@@H](C(=O)O)N(CC(C)C)S(=O)(=O)c2ccc(C)cc2)cc1
Found: 8.96
